target: tumor necrosis factor alpha (TNFα) (human, UniProt P01375 77-233); experiment: affinity by IC50 ELISA (so named in paragraph 380)
Sequence (P01375 77-233 limits assumed): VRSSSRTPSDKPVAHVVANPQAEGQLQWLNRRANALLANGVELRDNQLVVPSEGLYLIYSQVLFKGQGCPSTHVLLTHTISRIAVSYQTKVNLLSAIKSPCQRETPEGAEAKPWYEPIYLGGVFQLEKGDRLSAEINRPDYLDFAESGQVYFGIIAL

binder	u	Affinity
MAb 1989 (antibody, V domains shown, IgG1/kappa, CHO; also called H1814/L459) VH: EVQLVESGGGLIQPGGSLRLSCAVSGLNVSRDYMSWVRQAPGKGLEWISVIYRVGATMYADSVKGRFTISRDTSKNTVFLQMSRLKVADTAVYYCARNYYGSTLDYWGQGTLVTVSS VL: EIVLTQSPVTLSVPPGERASLSCRASQNIYTAVAWYQQKPGQAPRLLIYNASTRATGIPARFSGGGSGTDYTLTISSLESEDFAVYHCQQWHSWPLTFGGGTKLEIK	nM	0.05
MAb 1895 (antibody, V domains shown, IgG1/kappa, CHO; also called H1596/L459) VH: EVQLVESGGGLIQPGGSLRLSCAVSGLNVSRDYMSWVRQAPGKGLEWISVIYRGGATMYADSVKGRFTISRDTSKNTVFLQMSRLKVADTAVYYCARNYYGSTHDYWGQGTLVTVSS VL: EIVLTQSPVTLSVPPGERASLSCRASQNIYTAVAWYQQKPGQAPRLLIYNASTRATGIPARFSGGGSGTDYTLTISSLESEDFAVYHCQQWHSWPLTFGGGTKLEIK	nM	0.09
MAb 1852 (antibody, V domains shown, IgG1/kappa, CHO; also called H1729/L332) VH: EVQLLESGGGLIQPGGSLRLSCAASGFTVGNNYMSWVRQAPGKGLEWVSVIYSAGSTYYADSVKGRFIISRDNSKDTVYLQMNSLRVDDTAVYYCARNYYGSTLDYWGQGTLVTVSS VL: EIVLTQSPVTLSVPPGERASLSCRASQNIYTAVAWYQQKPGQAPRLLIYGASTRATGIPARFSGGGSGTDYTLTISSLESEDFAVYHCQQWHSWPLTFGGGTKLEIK	nM	0.41
MAb 1038 (antibody, V domains shown, IgG1/kappa, CHO; also called H1483/L250) VH: EVQLLESGGGLIQPGGSLRLSCAASGFTVSSNYMSWVRQAPGKGLEWVSVIYSGGRTYYADSVKGRFTISRDSSKNTLYLQMNSLRAEDTAVYYCARNYYGSTMDYWGQGTLVTVSS VL: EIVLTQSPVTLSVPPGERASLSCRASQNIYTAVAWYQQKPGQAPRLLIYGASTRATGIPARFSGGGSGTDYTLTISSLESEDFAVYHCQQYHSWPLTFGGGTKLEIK	nM	0.25
MAb 855 (antibody, V domains shown, IgG1/kappa, CHO; also called H1192/L332) VH: EVQLLESGGGLIQPGGSLRLSCAASGFTVSSNYMSWVRQAPGKGLEWVSVIYSGGRTYYADSVKGRFTISRDSSKNTLYLQMNSLRAEDTAVYYCARNYYGSTYDYWGQGTLVTVSS VL: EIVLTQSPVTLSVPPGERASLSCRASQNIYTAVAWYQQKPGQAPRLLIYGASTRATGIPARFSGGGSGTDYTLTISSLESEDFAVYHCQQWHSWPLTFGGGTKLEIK	nM	0.25
MAb 2019 (antibody, V domains shown, IgG1/kappa, CHO; also called H1844/L459) VH: EVQLVESGGGLIQPGGSLRLSCAVSGLNVSRDYMSWVRQAPGKGLEWISVIYRGGVTMYADSVKGRFTISRDTSKNTVFLQMSRLKVADTAVYYCARNYYGSTLDYWGQGTLVTVSS VL: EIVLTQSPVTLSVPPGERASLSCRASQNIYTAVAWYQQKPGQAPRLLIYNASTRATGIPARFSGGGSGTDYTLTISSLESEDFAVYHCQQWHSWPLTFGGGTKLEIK	nM	0.04
MAb 1775 (antibody, V domains shown, IgG1/kappa, CHO; also called H1687/L332) VH: EVQLVESGGGLIQPGGSLRLSCAVSGLNVSRDYMSWVRQAPGKGLEWISVIYRGGATMYADSVKGRFTISRDTSKNTVFLQMSRLKVADTAVYYCARNYYGSTMDYWGQGTLVTVSS VL: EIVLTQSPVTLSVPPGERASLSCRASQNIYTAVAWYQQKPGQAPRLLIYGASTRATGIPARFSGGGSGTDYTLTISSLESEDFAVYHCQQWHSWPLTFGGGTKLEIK	nM	0.22
MAb 1714 (antibody, V domains shown, IgG1/kappa, CHO; also called H1678/L332) VH: EVQLVESGGGLIQPGGSLRLSCAVSGLNVSRDYMSWVRQAPGKGLEWISVIYRGGATMYADSVKGRFTISRDTSKNTVFLQMSRLKVADTAVYYCARNYYGSTFDYWGQGTLVTVSS VL: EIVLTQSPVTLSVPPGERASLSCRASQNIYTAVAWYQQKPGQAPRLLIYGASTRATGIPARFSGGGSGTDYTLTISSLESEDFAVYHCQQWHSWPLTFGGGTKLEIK	nM	0.16
MAb 813 (antibody, V domains shown, IgG1/kappa, CHO; also called H1192/L309) VH: EVQLLESGGGLIQPGGSLRLSCAASGFTVSSNYMSWVRQAPGKGLEWVSVIYSGGRTYYADSVKGRFTISRDSSKNTLYLQMNSLRAEDTAVYYCARNYYGSTYDYWGQGTLVTVSS VL: EIVLTQSPVTLSVPPGERASLSCRASQNIYTAVAWYQQKPGQAPRLLIYGASTRATGIPARFSGGGSGTDYTLTISSLESEDFAVYHCQQYMSWPLTFGGGTKLEIK	nM	0.42
MAb 1067 (antibody, V domains shown, IgG1/kappa, CHO; also called H1487/L332) VH: EVQLLESGGGLIQPGGSLRLSCAASGFTVSSNYMSWVRQAPGKGLEWVSVIYSGGRTYYADSVKGRFTISRDSSKNTLYLQMNSLRAEDTAVYYCARNYYGSTLDYWGQGTLVTVSS VL: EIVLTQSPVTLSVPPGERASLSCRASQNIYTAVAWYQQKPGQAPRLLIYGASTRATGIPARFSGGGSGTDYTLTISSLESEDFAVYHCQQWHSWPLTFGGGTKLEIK	nM	0.12
